# Test system: MRSA (methicillin resistance Staphylococcus aureus) strains
# protocol summary: MIC50/MIC90 against a collection of genotypically characterized S. aureus isolates
# Assay type: cell-based
# settings: Staphylococcus aureus; MRSA (64 strains); read-out: MIC50
Form field: log10(MIC50) (one value per entry).
Values below are the log10 of the recorded MIC50, with µg/mL as the unit.

Some compounds with recorded log10(MIC50):
Request - read-out log10(MIC50) | tested on MRSA (methicillin resistance Staphylococcus aureus) strains | compound CCOc1ccc2ccccc2c1C(=O)N[C@@H]1C(=O)N2[C@@H]1SC(C)(C)[C@@H]2C(=O)O [Nafcillin]
1.81

Request - read-out log10(MIC50) | tested on MRSA (methicillin resistance Staphylococcus aureus) strains | compound CN(C)[C@@H]1C(O)=C(C(N)=O)C(=O)[C@@]2(O)C(O)=C3C(=O)c4c(O)cccc4[C@@](C)(O)[C@H]3C[C@@H]12 [Tetracycline]
-0.60

Request - read-out log10(MIC50) | tested on MRSA (methicillin resistance Staphylococcus aureus) strains | compound CC1COc2c(N3CCN(C)CC3)c(F)cc3c(=O)c(C(=O)O)cn1c23 (stereo not shown) [Ofloxacin]
-0.30

Request - read-out log10(MIC50) | tested on MRSA (methicillin resistance Staphylococcus aureus) strains | compound Cc1onc(-c2ccccc2)c1C(=O)N[C@@H]1C(=O)N2[C@@H]1SC(C)(C)[C@@H]2C(=O)O [Oxacillin]
2.11

Request - read-out log10(MIC50) | tested on MRSA (methicillin resistance Staphylococcus aureus) strains | compound CO/N=C(\C(=O)N[C@@H]1C(=O)N2C(C(=O)O)=C(COC(C)=O)CS[C@H]12)c1csc(N)n1 [Cefotaxime]
2.71

More entries:
Request - read-out log10(MIC50) | tested on MRSA (methicillin resistance Staphylococcus aureus) strains | compound C[C@@H](O)[C@H]1C(=O)N2C(C(=O)O)=C(SCCN=CN)C[C@H]12 [Imipenem]
0.90
